- test_details: qHTS for induction of synthetic lethality in tumor cells producing 2HG: qHTS for the HT-1080-NT fibrosarcoma cell line;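 note: NT is the 2HG producing partner of a matched IDH1 knockdown line; nearly all actives have a fitted effect of over 55% in size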
- experimental_parameters: HT-1080-NT fibrosarcoma viability, CellTiter-Glo ATP luminescence, 48 h; series mostly up to 46.1 µM
The whole screen tested about 360,000 compounds, of which about 6,000 (1.7%) were called active. Another 8% or so got no clear call; they are omitted. Calls come from the whole dose curve; as a rule, active = well fitted cell-killing curve with a large enough effect; inconclusive = small, poorly fitted or top-dose-only effect, or effect the other way; inactive = flat fitted curve, though single readings scatter. This excerpt belongs to a sample that is enriched for actives.
Pick from True for active, False for inactive when you respond.

Ask: Each molecule tested received a call. Report the one for COc1ccc(-c2c(C)cc3oc(=O)cc(-c4ccccc4)c3c2C)cc1OC .
Reply: False

Ask: Proceed to Cc1cc(Cl)ccc1-c1nc(NCCN(C)C)nc2ccsc12
Reply: True

Ask: Proceed to CCOC(=O)C1CCCN(C(=O)c2ccc(C)c(F)c2)CC1 (stereo not drawn)
Reply: False

Ask: Proceed to C[C@@H]1CN([C@H](C)CO)C(=O)c2cc(Br)cnc2O[C@@H]1CN(C)Cc1cncnc1
Reply: False

Ask: Proceed to O=C(OCc1ccccc1)N1CCC2CC1c1cc(N3CCN(S(=O)(=O)c4cc(Cl)cc(Cl)c4)CC3)ccc12 (stereo not drawn)
Reply: False

Ask: Proceed to COc1cccc(NC(=O)C2(C)CCN2C(=O)CCC2CCCC2)c1 (stereo not drawn)
Reply: False

Ask: Proceed to COc1ccc(NC(=O)c2c(C)oc3c2CCCC3)cc1
Reply: False

Ask: Proceed to C[C@H]1CN(c2ccc(Br)cc2)C(=O)[C@@H]1CC(=O)Nc1ccc(Br)cc1
Reply: False

----------
- test_details: qHTS for induction of synthetic lethality in tumor cells producing 2HG: qHTS for the HT-1080-NT fibrosarcoma cell line;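 note: NT is the 2HG producing partner of a matched IDH1 knockdown line; nearly all actives have a fitted effect of over 55% in size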
- experimental_parameters: HT-1080-NT fibrosarcoma viability, CellTiter-Glo ATP luminescence, 48 h; series mostly up to 46.1 µM
Among all 360,000 compounds or so, about 6,000 (1.7%) were called active. Roughly 8% stayed inconclusive and do not appear here. Calls follow the shape of the dose curve; as a rule, active = well fitted cell-killing curve with a large enough effect; inconclusive = small, poorly fitted or top-dose-only effect, or effect the other way; inactive = flat fitted curve, though single readings scatter. The sample holds actives, similar compounds and a random draw of the others, so the mix is not that of the screen.
Pick from YES (active), NO (inactive) when you respond.

Ask: Each compound tested received a call. Report the one for Cc1cccc(C)c1-n1nnnc1C1(C)CCC(=O)N1CCOc1ccccc1 (configuration not stated) .
Reply: NO

Ask: Proceed to COc1ccc(NC(=O)CCCOc2ccc(C(C)=O)cc2)cc1S(=O)(=O)N1CCCCC1
Reply: NO

Ask: Proceed to Nc1nc2c(Br)ccc(Br)c2cc1C(=O)NCCc1ccccc1
Reply: NO

Ask: Proceed to CC(C)C1CC2=C(C(=O)OC(C)(C)O2)C(c2ccc(F)cc2)O1 (configuration not stated)
Reply: NO

Ask: Proceed to Cc1cccc(-c2cnc(C(O)c3ccc4ccccc4c3)[nH]2)c1 (configuration not stated)
Reply: NO

Ask: Proceed to CN(C)CCCN(C(=O)c1ccc(S(=O)(=O)N2CCCCCC2)cc1)c1nc2ccc(Br)cc2s1
Reply: YES

Ask: Proceed to O=C(C=CC(=O)Nc1ccc(F)cc1F)Nc1ccc(F)cc1F
Reply: NO

Ask: Proceed to O=C1c2ccccc2C(=O)N1CCC#Cc1ccc2cc(C3(O)CCCCC3)oc(=O)c2c1
Reply: NO

Ask: Proceed to CC(=O)OC[C@@H]1CN(Cc2ccccc2)C[C@H](n2cnc3c(NCc4ccco4)ncnc32)O1
Reply: NO

Ask: Proceed to Cc1cccc(NC(=O)CSc2nc3[nH]ncc3c(=O)[nH]2)c1
Reply: NO

Ask: Proceed to CC1CCCCN1CCCNC(=O)Cn1ncc2c([nH]c3ccccc32)c1=O (configuration not stated)
Reply: NO

Ask: Proceed to CC(C)CCC(=O)Nc1cc(S(=O)(=O)N2CCOCC2)ccc1N1CCCC1
Reply: NO

Ask: Proceed to CCCCCn1c(=O)[nH]c2cc(C(=O)NCCCN3CCCCC3C)ccc2c1=O (configuration not stated)
Reply: YES

Ask: Proceed to CCCCc1ccc(S(=O)(=O)NC(=O)C2(C)CCN2C(=O)c2ccccc2)cc1 (configuration not stated)
Reply: NO

Ask: Proceed to CCC(C(=O)NCc1ccccc1)n1c(Cc2cc(F)cc(F)c2)nc2ccccc21 (configuration not stated)
Reply: NO

Ask: Proceed to CCOC(=O)C1=CCC(c2ccc(F)cc2)N(S(=O)(=O)c2ccc(C)cc2)C1 (configuration not stated)
Reply: NO

Ask: Proceed to COc1ccc(CNc2nc(NCc3ccc(OC)cc3)c3ncn(C4CCCC4)c3n2)cc1
Reply: YES

Ask: Proceed to CN(Cc1ccc(C(F)(F)F)cc1)C(=O)[C@H]1O[C@@H](n2cnc3c(N)ncnc32)[C@H](O)[C@@H]1O
Reply: NO

Ask: Proceed to O=C1CC[C@@H](C(=O)N2CSC[C@@H]2C(=O)Nc2ccc(C(F)(F)F)cc2)N1
Reply: NO

Ask: Proceed to CSc1nnc(NC(=O)c2nc(S(=O)(=O)Cc3ccc(C)cc3)ncc2Cl)s1
Reply: YES

Ask: Proceed to COc1cccc(-n2cc3c(c2-c2ccccc2)c(=O)n(C)c(=O)n3C)c1
Reply: NO

Ask: Proceed to CCCCOc1ccc(NC(=O)CSCC(=O)OCC)cc1
Reply: NO

----------
- test_details: qHTS for induction of synthetic lethality in tumor cells producing 2HG: qHTS for the HT-1080-NT fibrosarcoma cell line;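 note: NT is the 2HG producing partner of a matched IDH1 knockdown line; nearly all actives have a fitted effect of over 55% in size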
- experimental_parameters: HT-1080-NT fibrosarcoma viability, CellTiter-Glo ATP luminescence, 48 h; series mostly up to 46.1 µM
Among all 360,000 compounds or so, about 6,000 (1.7%) were called active. Roughly 8% stayed inconclusive and do not appear here. Calls come from the whole dose curve; as a rule, active = well fitted cell-killing curve with a large enough effect; inconclusive = small, poorly fitted or top-dose-only effect, or effect the other way; inactive = flat fitted curve, though single readings scatter. Shown is part of a subset that was picked to be rich in actives.
Pick from active, inactive when you respond.

Ask: Each molecule tested received a call. Report the one for O=C(CCl)Nc1cccc(CP(=O)(c2ccccc2)c2ccccc2)c1 .
Reply: active

Ask: Proceed to COc1ccc(C(C(=O)Nc2c(C)cccc2C)N2CCN(c3ccc(C)cc3)CC2)cc1 (configuration not stated)
Reply: inactive

Ask: Proceed to COc1ccc(Nc2cc(=O)oc3ccccc23)cc1
Reply: active

Ask: Proceed to COc1ccc(Cn2c(=O)[nH]c3cc(C(=O)N4CCN(C(=O)c5ccco5)CC4)ccc3c2=O)cc1
Reply: inactive

Ask: Proceed to CC1(C(=O)NS(=O)(=O)c2ccccc2Cl)CCN1C(=O)c1cccc(F)c1 (configuration not stated)
Reply: inactive

Ask: Proceed to O=C(CSCc1ccccc1)Nc1ccccc1
Reply: inactive

Ask: Proceed to CCCOc1ccc(C(=O)CCC(=O)OC(C)C(=O)Nc2ccc(NC(C)=O)cc2)cc1 (configuration not stated)
Reply: inactive

Ask: Proceed to CC[C@]1(O)C[C@@H]2CN(CCc3c([nH]c4ccccc34)[C@@](C(=O)OC)(c3cc4c(cc3OC)N(C)[C@H]3[C@@](O)(C(=O)OC)[C@H](OC(C)=O)[C@]5(CC)C=CCN6CC[C@]43[C@@H]65)C2)C1
Reply: active

Ask: Proceed to Cc1cccc(N(CC(=O)N2CCCC2)S(C)(=O)=O)c1C
Reply: inactive

Ask: Proceed to CCNC(=O)C1(C)CCCN(C(=O)c2c(C)noc2C)C1 (configuration not stated)
Reply: inactive

Ask: Proceed to COC(=O)[C@H]1C[C@H](OC(=O)NCc2ccccc2)[C@@]2(O)CN(S(=O)(=O)c3ccc(C)cc3)CC2[C@H]1C(=O)OC (some centres not stated)
Reply: inactive

Ask: Proceed to CC1(C(=O)NS(=O)(=O)c2ccccc2)CCN1C(=O)Cc1ccc(-c2ccccc2)cc1 (configuration not stated)
Reply: inactive

Ask: Proceed to COCC1CCCCN1C(=O)c1cc(COc2ccc(C)c(C)c2)on1 (configuration not stated)
Reply: inactive

Ask: Proceed to Cc1nnc(SC(C)C(=O)c2c[nH]c3ccccc23)n1C1CC1 (configuration not stated)
Reply: inactive

Ask: Proceed to CCCCn1nnnc1C(c1cc2ccccc2o1)N(C)Cc1ccc(Cl)c(Cl)c1 (configuration not stated)
Reply: inactive

Ask: Proceed to CSc1ccc(CN2CCC2(C)C(=O)NCc2ccccc2Br)cc1 (configuration not stated)
Reply: inactive

Ask: Proceed to COc1ccc(NS(=O)(=O)c2ccc(NC(=O)c3ccc(N(C)S(C)(=O)=O)cc3)cc2)cc1
Reply: active

----------
- test_details: qHTS for induction of synthetic lethality in tumor cells producing 2HG: qHTS for the HT-1080-NT fibrosarcoma cell line;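 note: NT is the 2HG producing partner of a matched IDH1 knockdown line; nearly all actives have a fitted effect of over 55% in size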; note: potency is the fitted concentration of half-maximal effect
- experimental_parameters: HT-1080-NT fibrosarcoma viability, CellTiter-Glo ATP luminescence, 48 h; series mostly up to 46.1 µM
About 6,000 (1.7%) of roughly 360,000 compounds were called active. Not shown: some 8% with an inconclusive outcome. For the sample, actives were picked, then their nearest neighbours and some compounds at random.
experimental_readout: Potency

> print(dat)
                                    compound  experimental.readout    value.measured
 1  Cc1ccccc1S(=O)(=O)NC(=O)C1(C)CCN1C(=O)Cc1ccc(Cl)cc1Cl (configuration not stated)               Potency          inactive
 2  CC(NC(=O)c1ccccc1)C(=O)Nc1ccccc1 (configuration not stated)               Potency          inactive
 3        COc1ccc(CCNC(=O)Cc2ccc(C)cc2)cc1OC               Potency          inactive
 4  COc1cccc(C(=O)Nc2ccc(N3CCN(C(=O)c4ccco4)CC3)cc2)c1               Potency  23.1 µM (active)
 5  CN(C)c1ccc(C2N(C)C(=O)c3ccccc3N2C)cc1 (configuration not stated)               Potency          inactive
 6  COc1ccc(CCNC(=S)NC(=O)/C=C/c2ccc(C)cc2)cc1OC               Potency  6.31 µM (active)
 7             O=c1c2ccccc2ncn1/N=C/c1ccccc1               Potency          inactive
 8  CCOc1cc(-c2cc(-c3ccc(NC(C)=O)cc3)nc(N)c2C#N)ccc1O               Potency          inactive
 9  Cc1cc([N+](=O)[O-])ccc1NS(=O)(=O)c1ccccc1               Potency          inactive
10  Cc1nc2ccccc2c(=O)n1-c1ccc(NS(=O)(=O)c2ccc(F)cc2F)cc1               Potency          inactive

Ask: Item O=C(NC1=CC(=O)c2ccccc2C1=O)c1ccccc1 has what recorded Potency?
Reply: 7.31 µM (active)

Ask: Proceed to O=C(O)CC1=C(Nc2ccccc2)C(=O)N(c2ccccc2)C1c1ccc(Cl)cc1 (configuration not stated)
Reply: inactive

Ask: Proceed to O=C(NCCc1cccc(F)c1)C1CC(O)CN1C(=O)Nc1ccccc1 (configuration not stated)
Reply: inactive

Ask: Proceed to Cc1sc2ncnc(SCC(=O)NC3CCS(=O)(=O)C3)c2c1C (configuration not stated)
Reply: inactive

Ask: Proceed to CC1(C)CC(=O)C=C(c2ccc(COC(=O)c3cc(F)cc(F)c3)cc2)C1=O
Reply: inactive

Ask: Proceed to O=[N+]([O-])c1ccc(NS(=O)(=O)c2ccccc2)c(Cl)c1
Reply: 6.51 µM (active)

Ask: Proceed to Cc1ccc(OCC(=O)Nc2ccc(N3CCN(C(=O)c4ccco4)CC3)cc2)c(C)c1
Reply: inactive
